Attribution: ChEMBL document CHEMBL1128421

- Species on record: Cavia porcellus
- test_details: Compound was evaluated for inhibition of contraction in guinea pig ileum induced by leukotriene D4 (LTD4).
- Type: functional, organism-based
readout_kind: IC50 (µM)

Guide cases for IC50, answers given:
compound	result_unit	assay_result
O=C(O)c1cc(=O)c2ccc(OCCCN3CCC(=C(c4ccccc4)c4ccccc4)CC3)cc2o1	µM	20.4
CCCc1c(OCC(O)COc2ccc3c(=O)cc(C(=O)O)oc3c2CCC)ccc(C(C)=O)c1O (stereo unspecified)	µM	0.12
O=C(O)c1cc(=O)c2ccc(OCCCN3CCC(C(O)(c4ccccc4)c4ccccc4)CC3)cc2o1	µM	22.8
O=C(O)c1cc(=O)c2ccc(OCCCCN3CCC(OC(c4ccccc4)c4ccccc4)CC3)cc2o1	µM	9.89
O=c1cc(C2N=NN=N2)oc2cc(OCCCN3CCC(C(O)(c4ccccc4)c4ccccc4)CC3)ccc12	µM	56.7
O=C(O)c1cc(=O)c2cc(OCCCN3CCC(=C(c4ccccc4)c4ccccc4)CC3)ccc2o1	µM	0.65

[1] O=C(O)c1cc(=O)c2ccc(OCCCN3CCC(OC(c4ccccc4)c4ccccc4)CC3)cc2o1
[2] O=C(O)c1cc(=O)c2ccc(OCCCCCN3CCC(OC(c4ccccc4)c4ccccc4)CC3)cc2o1
Hey, between 1 and 2 which has a smaller measured IC50? Write down the label attached to your selection. 1

[I] O=c1cc(C2N=NN=N2)oc2cc(OCCCN3CCC(=C(c4ccccc4)c4ccccc4)CC3)ccc12
[II] O=C(O)c1cc(=O)c2ccc(OCCCCCCN3CCC(OC(c4ccccc4)c4ccccc4)CC3)cc2o1
Hey, between I and II which has a smaller measured IC50? Write down the label attached to your selection. I
(I: 0.19 µM, II: 48.2 µM)
